Exercise: for every item that follows, state its recorded IC50.
Target: Aminopeptidase N (Rattus norvegicus) (UniProt P15684)
Sequence (P15684 whole entry): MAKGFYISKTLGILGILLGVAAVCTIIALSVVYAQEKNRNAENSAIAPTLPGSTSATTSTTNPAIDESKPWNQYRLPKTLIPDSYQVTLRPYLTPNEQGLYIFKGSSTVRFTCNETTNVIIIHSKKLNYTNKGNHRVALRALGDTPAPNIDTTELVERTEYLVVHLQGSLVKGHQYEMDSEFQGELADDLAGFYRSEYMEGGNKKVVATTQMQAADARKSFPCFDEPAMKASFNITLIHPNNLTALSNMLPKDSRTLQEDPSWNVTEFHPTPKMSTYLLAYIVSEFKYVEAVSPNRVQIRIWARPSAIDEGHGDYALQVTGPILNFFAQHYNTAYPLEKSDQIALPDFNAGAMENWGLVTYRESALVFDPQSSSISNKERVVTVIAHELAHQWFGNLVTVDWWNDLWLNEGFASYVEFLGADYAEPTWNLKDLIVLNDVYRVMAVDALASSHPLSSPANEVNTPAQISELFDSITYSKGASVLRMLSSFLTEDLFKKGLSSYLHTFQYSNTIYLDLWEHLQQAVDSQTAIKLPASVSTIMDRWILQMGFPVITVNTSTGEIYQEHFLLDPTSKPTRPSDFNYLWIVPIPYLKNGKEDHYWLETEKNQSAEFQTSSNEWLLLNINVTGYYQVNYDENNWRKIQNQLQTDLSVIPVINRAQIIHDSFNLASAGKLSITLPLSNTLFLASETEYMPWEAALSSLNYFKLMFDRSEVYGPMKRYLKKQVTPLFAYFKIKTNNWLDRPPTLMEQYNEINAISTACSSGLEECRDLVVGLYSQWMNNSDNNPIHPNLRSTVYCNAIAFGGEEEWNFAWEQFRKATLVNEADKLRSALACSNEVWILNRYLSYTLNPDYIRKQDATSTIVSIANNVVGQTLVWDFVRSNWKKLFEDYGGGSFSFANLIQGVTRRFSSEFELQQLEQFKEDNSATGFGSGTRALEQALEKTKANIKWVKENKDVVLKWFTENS
Experiment: Inhibition of rat aminopeptidase N assessed as ACC fluorophore released after 30 mins using Alanine ACC as substrate
Write the value in nM as a bare number.

Query: Name the reported IC50 value associated with the molecule COc1ccc(CNC(=S)P(=O)(O)C(N)CCc2ccccc2)cc1 (stereo not given)
Result: 2650

Query: Fill blank: measured IC50 of the molecule CCCC(N)P(=O)(O)C(=S)NCCc1ccccc1 (stereo not given) is ____.
Result: 2550

Query: Fill in the blank: the reported IC50 of NC(CCc1ccccc1)P(=O)(O)C(=S)NCc1ccccc1 (stereo not given) is ____.
Result: 2500

Query: What value of measured IC50 is listed for CCCC(N)P(=O)(O)C(=S)NCCCSC (stereo not given) ?
Result: 1450

Query: Look up IC50: CC(C)CC(N)P(=O)(O)C(=S)NCc1ccccc1 (stereo not given)
Result: 5100

Query: Fill in: IC50 of CNC(=S)P(=O)(O)C(N)CC(C)C (stereo not given) is ___
Result: 10800

Query: Entry under review: CC(N)P(=O)(O)C(=S)NCCc1ccccc1 (stereo not given) . Reported IC50?
Result: 8700

Query: State the recorded IC50 for this entry: CSCCCNC(=S)P(=O)(O)C(C)N (stereo not given)
Result: 3450

Query: Given the entry CC(N)P(=O)(O)C(=S)NCc1ccccc1 (stereo not given) , report its measured IC50.
Result: 1450

Query: Quick one: IC50 for CCCCCCNC(=S)P(=O)(O)C(N)C(C)C (stereo not given) ?
Result: 5050

Query: Report IC50 for CCCC(N)P(=O)(O)C(O)Cc1ccccc1 (stereo not given) please.
Result: 1200

Query: Fill blank: measured IC50 of the molecule NC(CCc1ccccc1)P(=O)(O)C(O)CCc1ccccc1 (stereo not given) is ____.
Result: 400

Query: I would be grateful if you could share the reported IC50 for NC(c1ccccc1)P(=O)(O)C(O)CCc1ccccc1 (stereo not given) .
Result: 2200

Query: So what's the measured IC50 for this one? CSCCCNC(=S)P(=O)(O)C(N)CCc1ccccc1 (stereo not given)
Result: 1650

Query: What value of IC50 has been reported for the following molecule? CCCCC(N)P(=O)(O)C(=S)NCCc1ccccc1 (stereo not given)
Result: 620

Query: Using the record for CCCCC(N)P(=O)(O)C(=S)NCc1ccccc1 (stereo not given) , report its IC50.
Result: 1100

---

Target: Aminopeptidase N (Sus scrofa)
Sequence (whole entry): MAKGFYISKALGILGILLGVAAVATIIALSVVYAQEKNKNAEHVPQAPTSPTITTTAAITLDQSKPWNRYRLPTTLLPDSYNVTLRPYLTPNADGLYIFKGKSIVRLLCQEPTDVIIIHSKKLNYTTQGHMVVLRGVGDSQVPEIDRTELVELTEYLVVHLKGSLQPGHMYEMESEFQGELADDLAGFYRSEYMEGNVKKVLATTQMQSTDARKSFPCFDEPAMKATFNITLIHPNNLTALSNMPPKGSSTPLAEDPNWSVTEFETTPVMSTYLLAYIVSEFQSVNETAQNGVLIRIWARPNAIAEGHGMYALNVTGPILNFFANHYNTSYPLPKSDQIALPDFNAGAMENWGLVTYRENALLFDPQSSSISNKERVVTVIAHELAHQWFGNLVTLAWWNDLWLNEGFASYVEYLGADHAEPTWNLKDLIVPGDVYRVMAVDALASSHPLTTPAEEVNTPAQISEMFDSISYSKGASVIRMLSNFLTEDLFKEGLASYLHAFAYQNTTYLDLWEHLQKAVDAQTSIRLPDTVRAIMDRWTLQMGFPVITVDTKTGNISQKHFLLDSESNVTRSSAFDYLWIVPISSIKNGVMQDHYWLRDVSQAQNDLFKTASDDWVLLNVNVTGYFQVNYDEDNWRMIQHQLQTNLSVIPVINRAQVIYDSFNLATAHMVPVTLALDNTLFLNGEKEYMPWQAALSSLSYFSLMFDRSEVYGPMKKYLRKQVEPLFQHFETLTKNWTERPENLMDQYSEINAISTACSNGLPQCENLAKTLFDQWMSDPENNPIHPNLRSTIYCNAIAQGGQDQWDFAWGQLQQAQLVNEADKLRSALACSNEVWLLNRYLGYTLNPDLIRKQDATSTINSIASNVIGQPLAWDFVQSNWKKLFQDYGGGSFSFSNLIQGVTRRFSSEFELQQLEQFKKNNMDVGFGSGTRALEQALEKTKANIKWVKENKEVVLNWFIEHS
Test: Inhibition of pig aminopeptidase N assessed as ACC fluorophore released after 30 mins using Alanine ACC as substrate
Kindly state IC50 for each of the entries shown.
Numeric only. Scale: µM

Query: Report IC50 for CC(C)C(N)P(=O)(O)C(O)CCc1ccccc1 (centres undefined) tested on Aminopeptidase N (Sus scrofa).
Result: 0.5

Query: Notebook entry, Aminopeptidase N (Sus scrofa) assay: IC50 of COc1ccc(CNC(=S)P(=O)(O)C(N)CCc2ccccc2)cc1 (centres undefined) = ?
Result: 2.65

Query: Item: NC(c1ccccc1)P(=O)(O)C(O)c1ccccc1 (centres undefined) Test system: Aminopeptidase N (Sus scrofa) Read-out: IC50 Value: ?
Result: 0.55

Ref: ChEMBL document CHEMBL1156183
